Settings: in water, 303.15 K
experimental.readout: solubility (mole fraction)

* COc1ccccc1OCCNCC(O)COc1cccc2[nH]c3ccccc3c12 (stereo unspecified) | 0.0468

---

Settings: in THF, 308.15 K
experimental.readout: solubility (mole fraction)

• COc1ccccc1OCCNCC(O)COc1cccc2[nH]c3ccccc3c12 (stereo unspecified) = 0.00302

---

Settings: in water, 278.15 K
experimental.readout: solubility (mole fraction)

- COc1ccccc1OCCNCC(O)COc1cccc2[nH]c3ccccc3c12 (stereo unspecified): 0.0196

---

Conditions: in ethanol, 283.15 K
experimental.readout: solubility (mole fraction)

- COc1ccccc1OCCNCC(O)COc1cccc2[nH]c3ccccc3c12 (stereo unspecified): 0.00085
